Molecular target: human α-synuclein (Homo sapiens, UniProt P37840)
Construct: the full-length gene for untagged human α-synuclein was inserted; made in house; host or cells: E. coli BL21(DE3), plasmid derived from pT7 or pET11a
Assay: Cell-free Thioflavin T assay of α-synuclein aggregation (αSyn ThT Assay)
Type: biochemical
Conditions: mean % inhibition of αSyn aggregation relative to DMSO control; αSyn 50 μM; compounds at 100 μM; read-out: αSyn ThT Assay % Inhibition
inhibition at 100 µM reference
Number only, in %; omit the unit.

Cn1c(=O)c2c(ncn2CCCCCN2CC(C(=O)O)n3c(c(-c4cccc(C(F)(F)F)c4)c(Cc4cccc5ccccc45)cc3=O)S2(=O)=O)n(C)c1=O (stereo not drawn) ... 5

inhibition at 100 µM for human α-synuclein (Homo sapiens, UniProt P37840) with input O=C(O)CN1CC(C(=O)O)n2c(c(-c3cccc(C(F)(F)F)c3)c(Cc3cccc4ccccc34)cc2=O)S1(=O)=O (stereo not drawn) equals 22

inhibition at 100 µM for human α-synuclein (Homo sapiens, UniProt P37840) with input Nc1c(Cc2cccc3ccccc23)c(-c2cccc(C(F)(F)F)c2)c2n(c1=O)C(C(=O)O)CS2 (single isomer, unassigned) [Compound 020b] equals 25

inhibition at 100 µM for human α-synuclein (Homo sapiens, UniProt P37840) with input Nc1c(Cc2cccc3ccccc23)c(-c2cccc(C(F)(F)F)c2)c2n(c1=O)C(C(=O)O)CS2 (racemic) [Compound 020] equals 53

inhibition at 100 µM for human α-synuclein (Homo sapiens, UniProt P37840) with input CN1CC(C(=O)O)n2c(c(-c3cccc(C(F)(F)F)c3)c(Cc3cccc4ccccc34)c(NC3CCCC3)c2=O)S1(=O)=O (stereo not drawn) equals 53

inhibition at 100 µM for human α-synuclein (Homo sapiens, UniProt P37840) with input Cn1c(=O)c2c(ncn2CCCCN2CC(C(=O)O)n3c(c(-c4cccc(C(F)(F)F)c4)c(Cc4cccc5ccccc45)cc3=O)S2(=O)=O)n(C)c1=O (stereo not drawn) equals 6

* * *

Target: E. coli CsgA (Escherichia coli, UniProt P28307)
Construct: made in house; host or cells: E. coli NEB 3016 slyD::kan, pET11d
Sequence (P28307 23-151): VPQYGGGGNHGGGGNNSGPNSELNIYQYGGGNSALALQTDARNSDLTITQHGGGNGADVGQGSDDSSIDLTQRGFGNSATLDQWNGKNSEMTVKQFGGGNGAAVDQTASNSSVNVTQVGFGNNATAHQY
Experiment: In vitro ThioflavinT assay of CsgA aggregation (CsgA ThT Assay)
Type: biochemical
Conditions: read-out: CsgA ThT Assay (10 μM CsgA) % Control AUC at 1005 minutes, 100 μM, mean AUC as % of DMSO control; CsgA 10 μM, black plates; compound 100 μM; 1005 minutes
Hi! Could you tag entries with remaining activity at 100 µM below 40% as T, and those at or above as F? Much appreciated.

Example results:
CN1CC(C(=O)O)n2c(c(-c3cccc(C(F)(F)F)c3)c(Cc3cccc4ccccc34)c(NCc3ccccc3)c2=O)S1(=O)=O (stereo not drawn) ... F
CCCN1CC(C(=O)O)n2c(c(-c3cccc(C(F)(F)F)c3)c(Cc3cccc4ccccc34)c(OCCc3ccccc3)c2=O)S1(=O)=O (stereo not drawn) ... T
CN1CC(C(=O)O)n2c1c(-c1cccc(C(F)(F)F)c1)c(Cc1cccc3ccccc13)cc2=O (stereo not drawn) ... F
O=C(O)CCCN1CC(C(=O)O)n2c(c(-c3cccc(C(F)(F)F)c3)c(Cc3cccc4ccccc34)cc2=O)S1(=O)=O (stereo not drawn) ... F
O=C(O)C1C[S+]([O-])c2c(-c3cccc(C(F)(F)F)c3)c(Cc3cccc4ccccc34)cc(=O)n21 (racemic) [Compound 027b] ... F

Please turn your attention to the following entry.
Incoming: Report whether reported remaining activity at 100 µM is lower than 40% (strictly) for O=C(O)C1CN(C(CO)CO)S(=O)(=O)c2c(-c3cccc(C(F)(F)F)c3)c(Cc3cccc4ccccc34)cc(=O)n21 (stereo not drawn)
Outgoing: T

* * *

Target: E. coli CsgA (Escherichia coli, UniProt P28307)
Construct: made in house; host or cells: E. coli NEB 3016 slyD::kan, pET11d
Test: In vitro ThioflavinT assay of CsgA aggregation (CsgA ThT Assay)
Format: biochemical
Conditions: read-out: CsgA ThT Assay (10 μM CsgA) % Control AUC at 1005 minutes, 100 μM (activity range), CsgA 10 μM, black plates; compound 100 μM; 1005 minutes; class symbol
Experimental: In vitro ThioflavinT assay to determine effects of compounds on CsgA aggregation. […] Protein concentration was assessed by the NanoDrop technique (Thermo Scientific), as is familiar to one skilled in the art. […] During the assay, plates were shaken initially for 5 seconds and subsequently for 3 seconds prior to fluorescent readings. Readings were performed every 15 minutes for up to 1005 minutes. The effect of compounds on CsgA aggregation in the assay was determined with data from 0-17 hours. […]
Value type: remaining activity at 100 µM

O=C(O)c1c(CCc2ccccc2)sc2c(-c3cccc(C(F)(F)F)c3)c(Cc3cccc4ccccc34)cc(=O)n12 ... > 60%
Cc1c(Cc2cccc3ccccc23)c(-c2cccc(C(F)(F)F)c2)c2n(c1=O)C(C(=O)O)CN(C)S2(=O)=O (stereo not shown) ... 11 to 31%
CN1CC(C(=O)O)n2c(c(-c3cccc(C(F)(F)F)c3)c(Cc3cccc4ccccc34)c(N)c2=O)S1(=O)=O (stereo not shown) ... 11 to 31%

Item: CNC(=O)C1CN(C)S(=O)(=O)c2c(-c3cccc(C(F)(F)F)c3)c(Cc3cccc4ccccc34)cc(=O)n21 (stereo not shown) | remaining activity at 100 µM: > 60%

Item: Cn1c(=O)c2c(ncn2CCCCN2CC(C(=O)O)n3c(c(-c4cccc(C(F)(F)F)c4)c(Cc4cccc5ccccc45)cc3=O)S2(=O)=O)n(C)c1=O (stereo not shown) | remaining activity at 100 µM: > 60%

Item: CCCc1c(Cc2cccc3ccccc23)c(-c2cccc(C(F)(F)F)c2)c2n(c1=O)C(C(=O)O)CN(C)S2(=O)=O (stereo not shown) | remaining activity at 100 µM: 11 to 31%

Item: O=C(O)C1CSc2c(-c3cccc(C(F)(F)F)c3)c(Cc3cccc4ccccc34)cc(=O)n21 (single isomer, unassigned) [Compound 011a] | remaining activity at 100 µM: 31 to 60%

Item: O=C(O)C1CS(=O)(=O)c2c(-c3cccc(C(F)(F)F)c3)c(Cc3cccc4ccccc34)cc(=S)n21 (single isomer, unassigned) [Compound 014a] | remaining activity at 100 µM: 11 to 31%

* * *

Molecular target: E. coli CsgA (Escherichia coli, UniProt P28307)
Construct: made in house; host or cells: E. coli NEB 3016 slyD::kan, pET11d
Experiment: In vitro ThioflavinT assay of CsgA aggregation (CsgA ThT Assay)
Format: biochemical
Details: read-out: CsgA ThT Assay (2 μM CsgA) % Control Bmax 25 μM, activity range, class symbol; CsgA 2 μM, white plates; compound 25 μM
remaining activity at 25 µM reference

Here is how some compounds turned out for remaining activity at 25 µM.
O=C(O)[C@@H]1CN(Cc2ccccc2)c2c(-c3cccc(C(F)(F)F)c3)c(Cc3cccc4ccccc34)c(Br)c(=O)n21 (single isomer, unassigned) ... 31 to 60%
CCCN1CC(C(=O)O)n2c(c(-c3cccc(C(F)(F)F)c3)c(Cc3cccc4ccccc34)c(CC(C)C)c2=O)S1(=O)=O (stereo not drawn) ... 31 to 60%

Note: attention shifts to another entry.
remaining activity at 25 µM for E. coli CsgA (Escherichia coli, UniProt P28307) with input CCc1c(Cc2cccc3ccccc23)c(-c2cccc(C(F)(F)F)c2)c2n(c1=O)C(C(=O)O)CN2Cc1ccccc1 (stereo not drawn) equals 31 to 60%

* * *

Molecular target: E. coli CsgA (Escherichia coli, UniProt P28307)
Construct: made in house; host or cells: E. coli NEB 3016 slyD::kan, pET11d
Assay: In vitro ThioflavinT assay of CsgA aggregation (CsgA ThT Assay)
Assay type: biochemical
Conditions: read-out: CsgA ThT Assay (2 μM CsgA) % Control Bmax 100 μM, activity range, class symbol; CsgA 2 μM, white plates; compound 100 μM
Value type: remaining activity at 100 µM

Here is how some compounds turned out for remaining activity at 100 µM.
CC(C)CN1CC(C(=O)O)n2c(c(-c3cccc(C(F)(F)F)c3)c(Cc3cccc4ccccc34)c(NC3CCCC3)c2=O)S1(=O)=O (stereo not shown) ... 31 to 60%
CCCN1CC(C(=O)O)n2c(c(-c3cccc(C(F)(F)F)c3)c(Cc3cccc4ccccc34)c(OCc3ccccc3)c2=O)S1(=O)=O (stereo not shown) ... > 60%
CN1CC(C(=O)O)n2c(c(-c3cccc(C(F)(F)F)c3)c(Cc3cccc4ccccc34)c(C(=O)N3CCOCC3)c2=O)S1(=O)=O (stereo not shown) ... > 60%

Item: O=C(O)C1CNS(=O)(=O)c2c(-c3cccc(C(F)(F)F)c3)c(Cc3cccc4ccccc34)c(NC3CCCC3)c(=O)n21 (stereo not shown) | remaining activity at 100 µM: 11 to 31%

Item: O=C(O)C1CN(Cc2ccccc2)c2c(-c3cccc(Br)c3)c(Cc3cccc4ccccc34)c(Cl)c(=O)n21 (stereo not shown) | remaining activity at 100 µM: 31 to 60%

Item: O=C(O)C1CN(Cc2ccncc2)c2c(-c3cccc(C(F)(F)F)c3)c(Cc3cccc4ccccc34)c(Cl)c(=O)n21 (stereo not shown) | remaining activity at 100 µM: 31 to 60%

Item: O=C(O)C1CN(Cc2ccc(CO)cc2)c2c(-c3cccc(C(F)(F)F)c3)c(Cc3cccc4ccccc34)c(Cl)c(=O)n21 (stereo not shown) | remaining activity at 100 µM: 31 to 60%
